Reference source for all entries: the supplement of paper PMC3334620

SUBJECT_OF_TEST: Abf1 (UniProt P14164)
Sequence: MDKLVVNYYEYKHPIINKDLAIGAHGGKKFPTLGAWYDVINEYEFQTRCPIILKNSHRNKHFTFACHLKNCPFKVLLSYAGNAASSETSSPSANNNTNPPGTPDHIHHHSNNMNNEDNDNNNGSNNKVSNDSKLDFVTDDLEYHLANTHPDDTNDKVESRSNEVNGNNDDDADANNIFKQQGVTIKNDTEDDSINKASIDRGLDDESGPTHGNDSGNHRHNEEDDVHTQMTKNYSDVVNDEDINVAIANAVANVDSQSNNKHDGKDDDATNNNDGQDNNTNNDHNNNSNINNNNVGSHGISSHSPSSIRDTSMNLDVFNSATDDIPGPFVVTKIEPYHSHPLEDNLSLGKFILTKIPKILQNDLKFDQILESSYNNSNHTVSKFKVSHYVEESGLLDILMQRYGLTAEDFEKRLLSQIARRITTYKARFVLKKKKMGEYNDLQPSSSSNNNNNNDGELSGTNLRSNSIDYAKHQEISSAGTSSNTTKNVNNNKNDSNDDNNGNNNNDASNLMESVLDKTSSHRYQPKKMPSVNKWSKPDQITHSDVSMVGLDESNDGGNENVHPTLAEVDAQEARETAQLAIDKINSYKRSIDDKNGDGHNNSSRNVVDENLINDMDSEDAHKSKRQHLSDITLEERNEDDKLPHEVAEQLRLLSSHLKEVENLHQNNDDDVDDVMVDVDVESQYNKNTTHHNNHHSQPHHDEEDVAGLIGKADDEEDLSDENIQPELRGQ
RUN_DESCRIPTION: PBM E-score (8-mer binding enrichment) (E-score (-0.5 to 0.5)); higher = stronger / more preferred TF binding
ASSAY_CONDITIONS: protein concentration: 200 nM; construct: GST-full length
Over roughly 33,000 sequences, “E-score (-0.5 to 0.5)” has its median near -0.015; the highest 2% begin near 0.3. This excerpt belongs to a sample that is enriched for the highest values.
Threshold rule: PBM E-score greater than or equal to 0.06 is yes; below that, no.

1. AAAAACGT = yes
2. AGTGGCAG = no
3. GAAAACTA = no
4. ACGGGTGG = yes
5. ACACGACA = yes
6. CACGAGTC = no
7. CACGGTGA = yes
8. CTCGTGCC = no
9. CAAACGGG = no
10. GGCCGGCA = no
11. GACAGACA = yes
12. GCTTCGCC = no
13. GCACGACA = yes
14. ACATCGTG = yes
15. GGGTAGAA = no
16. ACTAGTGC = yes
17. AAGACCGG = no
18. ACGGGTGA = yes
19. CGAACAGC = no
20. AACGGTGA = yes
21. GGAGACTA = no
22. CACGGCGG = no
